// data source = patent US12583854B2

# TARGET ENTITY: GDP-bound KRAS protein (aa 1-169), containing both G12C and C118A amino acid substitutions (Homo sapiens, UniProt P01116, C118A/G12C)
# Sequence (P01116 1-169 isoform P01116-2 G12C/C118A): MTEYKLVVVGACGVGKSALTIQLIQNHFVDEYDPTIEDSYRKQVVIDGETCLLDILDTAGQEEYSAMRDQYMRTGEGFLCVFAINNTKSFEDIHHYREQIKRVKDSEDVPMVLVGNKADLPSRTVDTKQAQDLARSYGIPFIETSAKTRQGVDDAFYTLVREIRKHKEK
# EXPERIMENT: Coupled Nucleotide Exchange Assay
# Format: biochemical
# MEASUREMENT CONDITIONS: 5 min compound pre-incubation; SOS-mediated nucleotide exchange, AlphaScreen
Where a name gives a salt, the structure may show the parent alone.
Coupled exchange IC50 (5 min; μM) strictly under 0.4 µM means true; at 0.4 µM or over means false.

# example entries with known answers
COMPOUND: C=CC(=O)N1CCN(c2c(C#N)c(=O)n(-c3c(C(C)C)ccnc3C(C)C)c3nc(-c4ccccc4F)c(Cl)cc23)CC1 (single isomer, unassigned) [Example 8.2]
ASSIGNED CLASS: true
--
COMPOUND: C=CC(=O)N1CCN(c2c(C#N)c(=O)n(-c3c(C(C)C)ccnc3N(C)C)c3nc(-c4ccccc4F)c(Cl)cc23)CC1 (single isomer, unassigned) [Example 8.8]
ASSIGNED CLASS: true
--
COMPOUND: C=CC(=O)N1CCN(c2c(C#N)c(=O)n(-c3c(C)ccnc3C(C)C)c3nc(-c4ccccc4F)c(Cl)cc23)C[C@H]1C (single isomer, unassigned) [Example 6.7]
ASSIGNED CLASS: true
--
COMPOUND: C=CC(=O)N1[C@H](C)CN(c2c(C#N)c(=O)n(-c3c(C)ccnc3C(C)C)c3nc(-c4ccccc4F)c(Cl)cc23)C[C@@H]1C (single isomer, unassigned) [Example 7.6]
ASSIGNED CLASS: true

Given C=CC(=O)N1CCN(c2c(C#N)c(=O)n(-c3c(C)ccnc3C(C)C)c3nc(-c4ccccc4C)c(Cl)cc23)CC1 (single isomer, unassigned) [Example 11.1] , is recorded Coupled exchange IC50 (5 min; μM) strictly lower than 0.4 µM? true

# TODO verify Coupled exchange IC50 (5 min; μM) < 0.4 µM strictly for this compound: C=CC(=O)N1CCN(c2c(C#N)c(=O)n(-c3c(C)ccnc3C(C)C)c3nc(-c4ccccc4F)c(Cl)cc23)C[C@@H]1C false

is_below(Coupled exchange IC50 (5 min; μM), 0.4 µM) for C=CC(=O)N1CCN(c2c(C#N)c(=O)n(-c3c(C)ccnc3C(C)C)c3nc(-c4ccccc4F)c(Cl)cc23)C[C@H]1C (single isomer, unassigned) [Example 6.6] ? false

For this compound, is Coupled exchange IC50 (5 min; μM) lower than 0.4 µM? CC(C)c1ncnc(C(C)C)c1-n1c(=O)c(C#N)c(N2CCN(C(=O)/C=C/CNC(C)(C)C)CC2)c2cc(Cl)c(-c3ccccc3F)nc21 false

Consider the compound CNC/C=C/C(=O)N1CCN(c2c(C#N)c(=O)n(-c3c(C(C)C)ncnc3C(C)C)c3nc(-c4ccccc4F)c(Cl)cc23)CC1 [Example 4, trifluoroacetate salt] . Is its Coupled exchange IC50 (5 min; μM) strictly less than 0.4 µM? true

Report whether reported Coupled exchange IC50 (5 min; μM) is lower than 0.4 µM (strictly) for C=CC(=O)N1CCN(c2c(C#N)c(=O)n(-c3c(N(C)C)ccnc3C(C)C)c3nc(-c4ccccc4F)c(Cl)cc23)CC1 (single isomer, unassigned) [Example 8.6] true

# check: Coupled exchange IC50 (5 min; μM) < 0.4 µM for C=CC(=O)N1CCN(c2c(C#N)c(=O)n(-c3c(C)ccnc3C(C)C)c3nc(-c4ccccc4F)c(Cl)cc23)CC1 [Example 6.5] true

Just wondering, is Coupled exchange IC50 (5 min; μM) of C=CC(=O)N1CCN(c2c(C#N)c(=O)n(-c3c(N(C)C)ccnc3C(C)C)c3nc(-c4ccccc4F)c(Cl)cc23)CC1 (single isomer, unassigned) [Example 8.3] below 0.4 µM? false

Criterion: Coupled exchange IC50 (5 min; μM) strictly below 0.4 µM. Is it met by C=CC(=O)N1CCN(c2c(C#N)c(=O)n(-c3c(C)ccnc3C(C)C)c3nc(-c4ccccc4C(C)C)c(Cl)cc23)CC1 (single isomer, unassigned) [Example 11.2] ? false

Is Coupled exchange IC50 (5 min; μM) of C=CC(=O)N1CCN(c2c(C#N)c(=O)n(-c3c(C(C)C)ccnc3C(C)C)c3nc(-c4ccccc4C)c(Cl)cc23)CC1 (single isomer, unassigned) strictly below 0.4 µM? true

Is the reported Coupled exchange IC50 (5 min; μM) for C=CC(=O)N1CCN(c2c(C#N)c(=O)n(-c3c(C)ccnc3C(C)C)c3nc(-c4ccccc4C(C)C)c(Cl)cc23)CC1 (single isomer, unassigned) [Example 11.3] strictly below 0.4 µM? true

Please indicate whether the reported Coupled exchange IC50 (5 min; μM) of C=CC(=O)N1CCN(c2c(C#N)c(=O)n(-c3c(C(C)C)ncnc3C(C)C)c3nc(-c4ccccc4CN(C)C)c(Cl)cc23)CC1 is strictly below 0.4 µM. false

Consider C=CC(=O)N1CCN(c2c(C#N)c(=O)n(-c3c(C(C)C)ccnc3C(C)C)c3nc(Cl)c(F)cc23)CC1 . Does its Coupled exchange IC50 (5 min; μM) lie strictly below 0.4 µM? false

###

# TARGET ENTITY: GDP-bound KRAS protein (aa 1-169), containing both G12C and C118A amino acid substitutions (Homo sapiens, UniProt P01116, C118A/G12C)
# EXPERIMENT: Coupled Nucleotide Exchange Assay
# Type: biochemical
# MEASUREMENT CONDITIONS: 5 min compound pre-incubation; SOS-mediated nucleotide exchange, AlphaScreen
Assign labels as follows, please: y for Coupled exchange IC50 (5 min; μM) below 0.4 µM; n for Coupled exchange IC50 (5 min; μM) equal to or exceeding 0.4 µM.

COMPOUND: CC(C)c1ncnc(C(C)C)c1-n1c(=O)c(C#N)c(N2CCN(C(=O)/C=C/CNC3CC3)CC2)c2cc(Cl)c(-c3ccccc3F)nc21
ASSIGNED CLASS: n

COMPOUND: C=CC(=O)N1CCN(c2c(C#N)c(=O)n(-c3c(C(C)C)ccnc3C(C)C)c3nc(-c4ccccc4C)c(F)cc23)CC1 [Example 10.3]
ASSIGNED CLASS: n

COMPOUND: CC(C)c1ncnc(C(C)C)c1-n1c(=O)c(C#N)c(N2CCN(C(=O)/C=C/C3CCCN3C)CC2)c2cc(Cl)c(-c3ccccc3F)nc21 (centres unmarked)
ASSIGNED CLASS: n

COMPOUND: C=CC(=O)N1CCN(c2c(C#N)c(=O)n(-c3c(C(C)C)ccnc3C(C)C)c3nc(-c4ccccc4F)c(F)cc23)CC1 [Example 10.5]
ASSIGNED CLASS: y

COMPOUND: CC(C)c1ncnc(C(C)C)c1-n1c(=O)c(C#N)c(N2CCN(C(=O)/C=C/CN3CCCCC3)CC2)c2cc(Cl)c(-c3ccccc3F)nc21
ASSIGNED CLASS: n

COMPOUND: C=CC(=O)N1CCN(c2c(C#N)c(=O)n(-c3c(CN(C)C)ccnc3C(C)C)c3nc(-c4ccccc4F)c(Cl)cc23)CC1 [Example 2.1]
ASSIGNED CLASS: y

For this compound, is Coupled exchange IC50 (5 min; μM) lower than 0.4 µM? C=CC(=O)N1CCN(c2c(C#N)c(=O)n(-c3c(C)ccnc3C(C)C)c3nc(-c4ccccc4F)c(Cl)cc23)C[C@H]1C [Example 6.2] y

Report whether reported Coupled exchange IC50 (5 min; μM) is lower than 0.4 µM (strictly) for C=CC(=O)N1CCN(c2c(C#N)c(=O)n(-c3c(CN(C)C)ccnc3C(C)C)c3nc(-c4ccccc4F)c(Cl)cc23)CC1 [Example 2] y

###

# TARGET ENTITY: GDP-bound KRAS protein (aa 1-169), containing both G12C and C118A amino acid substitutions (Homo sapiens, UniProt P01116, C118A/G12C)
# EXPERIMENT: Coupled Nucleotide Exchange Assay
# Format: biochemical
# MEASUREMENT CONDITIONS: 5 min compound pre-incubation; SOS-mediated nucleotide exchange, AlphaScreen
Entries whose Coupled exchange IC50 (5 min; μM) is below 0.4 µM take MET; entries at or above 0.4 µM take NOT MET.

COMPOUND: C=CC(=O)N1CCN(c2c(C#N)c(=O)n(-c3c(C(C)C)ccnc3C(C)C)c3nc(-c4ccccc4F)c(F)cc23)CC1 [Example 10.4]
ASSIGNED CLASS: NOT MET

Is it true that Coupled exchange IC50 (5 min; μM) reported for C=CC(=O)N1CCN(c2c(C#N)c(=O)n(-c3c(C(C)C)ccnc3N(C)C)c3nc(-c4ccccc4F)c(Cl)cc23)CC1 (single isomer, unassigned) [Example 8.4] is less than 0.4 µM? MET

Below 0.4 µM on Coupled exchange IC50 (5 min; μM)? Entry C=CC(=O)N1CCN(c2c(C#N)c(=O)n(-c3c(C(C)C)ccnc3C(C)C)c3nc(-c4ccccc4C)c(F)cc23)CC1 [Example 10.2] NOT MET

Determine if CC(C)c1ncnc(C(C)C)c1-n1c(=O)c(C#N)c(N2CCN(C(=O)/C=C/CN)CC2)c2cc(Cl)c(-c3ccccc3F)nc21 shows Coupled exchange IC50 (5 min; μM) strictly lower than 0.4 µM. MET

In plain terms, does C=CC(=O)N1CCN(c2c(C#N)c(=O)n(-c3c(C(C)C)ncnc3C(C)C)c3nc(Cl)c(Cl)cc23)CC1 come in under 0.4 µM for Coupled exchange IC50 (5 min; μM)? NOT MET
